# System: AMPK
# TEST: AMPK activation (AMPKα immunoassay kit, phospho-Thr172) in MCF7 cells
# Format: cell-based, human
# Design: unit not given here
# CONDITION_PARAMETERS: 50 uM compound, 24 h
PROPERTY: AMPK Activation 50 uM (degree of phosphorylated AMPKα Thr172)
Just the number, please, no unit after it.

Worked examples follow.
{"columns": ["COMPOUND", "TEST_VALUE"],
 "data": [
  ["Cl.N=C(N)N/C(=N/Cc1cccnc1)NC1CCCCC1", 15.4],
  ["CCCC/N=C(\\NCCCC)NC(=N)N.Cl [Example 9, N4,N5-dibutyl biguanide hydrochloride]", 25.6],
  ["CCC(C)N/C(=N\\CCc1ccccc1)NC(=N)N.Cl (stereo not shown)", 18.4],
  ["C=CC/N=C(\\NCCCC)NC(=N)N.Cl", 20.5],
  ["CCCCN/C(=N\\Cc1ccccc1Cl)NC(=N)N.Cl", 19.1],
  ["Cl.N=C(N)N/C(=N/CCc1cccs1)NCCc1ccccc1", 31.5],
  ["CN(CCc1ccccc1)/C(=N\\CCc1ccccc1)NC(=N)N.Cl", 7.2],
  ["CCCCN/C(=N\\Cc1ccco1)NC(=N)N.Cl", 19.4]
]}

# input Look up and state reported AMPK Activation 50 uM (degree of phosphorylated AMPKα Thr172) for Cl.N=C(N)N/C(=N/C1CCCCCC1)NCc1ccccc1
# output 44.6

# input Look up and state reported AMPK Activation 50 uM (degree of phosphorylated AMPKα Thr172) for Cl.N=C(N)N/C(=N/C1CCCC1)NCc1ccccc1
# output 7.3

====

PROPERTY: melting point

# input Look up and state reported melting point for Cl.N=C(N)N/C(=N/Cc1cccnc1)Nc1ccccc1 [Example 28]
# output 189 to 190 °C

====

# Test system: AMPK
# TEST: AMPK activation (AMPKα immunoassay kit, phospho-Thr172) in MCF7 cells
# Type: cell-based, human
# Design: unit not given here
# CONDITION_PARAMETERS: 50 uM compound, 24 h
Binary classification by AMPK Activation 50 uM (degree of phosphorylated AMPKα Thr172), with 20 as an inclusive lower bound for condition met; all other cases are condition not met.

Consider the worked cases shown below.
{"columns": ["MOLECULE", "CLASS"],
 "data": [
  ["Cl.N=C(N)N/C(=N/Cc1ccc2c(c1)OCO2)NCCc1ccccc1", "condition not met"],
  ["C/N=C(/NC(=N)N)N(C)Cc1ccccc1.Cl", "condition not met"],
  ["CCCCCC/N=C(/NC(=N)N)NC(C)CC.Cl (stereo not shown)", "condition met"],
  ["Cl.N=C(N)N/C(=N/CCc1ccccc1)NC1CCCCC1", "condition not met"],
  ["CCCCCC/N=C(\\NCCCC)NC(=N)N.Cl", "condition met"],
  ["CCCCN/C(=N\\C1CCCC1)NC(=N)N.Cl", "condition met"]
]}

# input In plain terms: is recorded AMPK Activation 50 uM (degree of phosphorylated AMPKα Thr172) at least 20 for Cl.N=C(N)N/C(=N/Cc1ccco1)NCCc1ccccc1 ?
# output condition met

====

# Test system: AMPK
# TEST: AMPK activation (AMPKα immunoassay kit, phospho-Thr172) in MCF7 cells
# Assay type: cell-based, human
# Set-up: unit not given here
# CONDITION_PARAMETERS: 50 uM compound, 24 h
Binary classification by AMPK Activation 50 uM (degree of phosphorylated AMPKα Thr172), with 7 as an inclusive lower bound for t; all other cases are f.

{"columns": ["COMPOUND", "EXPERIMENTAL_TARGET", "CLASS"],
 "data": [
  ["Cl.N=C(N)N/C(=N/Cc1ccco1)NCc1ccccc1 [Example 32]", "AMPK", "t"],
  ["CCCCCCN(CCCCCC)/C(=N\\CCc1ccccc1)NC(=N)N.Cl [Example 49]", "AMPK", "t"],
  ["CCCC/N=C(/NC(=N)N)NC1CCCCCC1.Cl [Example 1]", "AMPK", "t"],
  ["CCCCN/C(=N\\C(C)CC)NC(=N)N.Cl (stereo not shown) [Example 12]", "AMPK", "t"],
  ["Cl.N=C(N)N/C(=N/Cc1ccc(F)cc1)NCCc1ccccc1 [Example 41]", "AMPK", "t"]
]}

# input In plain terms: is recorded AMPK Activation 50 uM (degree of phosphorylated AMPKα Thr172) at least 7 for CCC/N=C(\NC)NC(=N)N.Cl [Example 2] ?
# output f

# input In plain terms: is recorded AMPK Activation 50 uM (degree of phosphorylated AMPKα Thr172) at least 7 for C=CC/N=C(\NC)NC(=N)N.Cl [Example 4] ?
# output f

# input In plain terms: is recorded AMPK Activation 50 uM (degree of phosphorylated AMPKα Thr172) at least 7 for Cl.N=C(N)N/C(=N/C12CC3CC(CC(C3)C1)C2)NCCc1ccccc1 [Example 34] ?
# output t

====

# System: AMPK
# TEST: AMPK activation (AMPKα immunoassay kit, phospho-Thr172) in MCF7 cells
# Assay type: cell-based, human
# Design: unit not given here
# CONDITION_PARAMETERS: 50 uM compound, 24 h
PROPERTY: AMPK Activation 50 uM (degree of phosphorylated AMPKα Thr172)
Just the number, please, no unit after it.

{"columns": ["COMPOUND", "TEST_VALUE"],
 "data": [
  ["C=CC/N=C(\\NCc1ccccc1)NC(=N)N.Cl [Example 29]", 5.5],
  ["Cl.N=C(N)N/C(=N/Cc1ccccc1)NCCc1ccccc1 [Example 40]", 20.5]
]}

Next, consider the following compound.
# input Look up and state reported AMPK Activation 50 uM (degree of phosphorylated AMPKα Thr172) for CCCCN/C(=N\C(C)C)NC(=N)N.Cl [Example 11]
# output 4.2

====

Form field: melting point (one value per entry).

Worked examples follow.
{"columns": ["COMPOUND", "TEST_VALUE"],
 "data": [
  ["Cl.N=C(N)N/C(=N/CCc1ccccc1)NCCc1ccccc1 [Example 43]", "183 to 184 °C"],
  ["CCCC/N=C(/NC(=N)N)N(Cc1ccccc1)C(C)C.Cl [Example 45]", "170 to 171 °C"],
  ["CN/C(=N\\Cc1ccccc1)NC(=N)N.Cl [Example 5]", "113 to 115 °C"],
  ["Cl.N=C(N)N/C(=N/Cc1ccc(F)cc1)NCCc1ccccc1 [Example 41]", "125 to 127 °C"],
  ["CCCCN/C(=N\\C12CC3CC(CC(C3)C1)C2)NC(=N)N.Cl [Example 16]", "193 to 194 °C"]
]}

# input Look up and state reported melting point for CCCCN/C(=N\CCc1cccs1)NC(=N)N.Cl [Example 24]
# output 131 to 133 °C

# input Look up and state reported melting point for Cl.N=C(N)N/C(=N/c1ccc(C(F)(F)F)cc1)NCCc1ccccc1 [Example 37]
# output 150 to 151 °C

# input Look up and state reported melting point for CCCCN/C(=N\Cc1ccc(Cl)cc1)NC(=N)N.Cl [Example 21]
# output 113 to 115 °C

# input Look up and state reported melting point for Cl.N=C(N)N/C(=N/C12CC3CC(CC(C3)C1)C2)NCCc1ccccc1 [Example 34]
# output 251 to 252 °C
